ASSAY_PROCEDURE: activity coefficient (dimensionless); of the first substance listed, at infinite dilution; xn = mol fraction of the nth substance listed
CONDITION: 303.15 K; Liquid; Chromatography; x1 = 0
// assign Condition met if activity coefficient falls strictly below 20, else Condition not met (ties count as Condition not met)

CC#N [acetonitrile] + CCn1cc[n+](C)c1.F[B-](F)(F)F :: Condition met
C1=CCCCC1 [cyclohexene] + CCn1cc[n+](C)c1.F[B-](F)(F)F :: Condition not met
Cc1ccccc1 [toluene] + CCn1cc[n+](C)c1.F[B-](F)(F)F :: Condition met
CC1CCCCC1 [methylcyclohexane] + CCn1cc[n+](C)c1.F[B-](F)(F)F :: Condition not met
CCCCCCCC [octane] + CCn1cc[n+](C)c1.F[B-](F)(F)F :: Condition not met
CCCCCCCCC [nonane] + CCn1cc[n+](C)c1.F[B-](F)(F)F :: Condition not met

Provenance of the data: the NIST ThermoML archive (doi:10.1021/je800218g)
